# Tested on: Monocotyledonous and dicotyledonous test plants
# Experiment Description: Post-emergence herbicidal action, greenhouse pot test, sprayed at the 2- to 3-leaf stage, 9-level rating after 2 to 3 weeks
# Assay type: in vivo
# Study Conditions: Ipopur., 250 g/ha, rated after 2 to 3 weeks, 9-level scale
Observation Type: Post-emergence action rating, Ipopur.

[
  {
    "Molecule": "COCCOCc1nc(C(F)(F)F)ccc1C(=O)C1=C(O)CCC(C)(C)C1=O",
    "Test System": "Monocotyledonous and dicotyledonous test plants",
    "Post-emergence action rating, Ipopur.": 2
  },
  {
    "Molecule": "O=C(OCc1nc(C(F)(F)F)ccc1C(=O)C1=C(O)C2CCC(C2)C1=O)c1ccccc1 (stereo not drawn)",
    "Test System": "Monocotyledonous and dicotyledonous test plants",
    "Post-emergence action rating, Ipopur.": 3
  },
  {
    "Molecule": "O=C(C1=C(O)C2CCC(C2)C1=O)c1ccc(C(F)(F)F)nc1COC1COCOC1 (stereo not drawn)",
    "Test System": "Monocotyledonous and dicotyledonous test plants",
    "Post-emergence action rating, Ipopur.": 3
  },
  {
    "Molecule": "O=C(C1=C(O)C2CCC(C2)C1=O)c1ccc(C(F)(F)F)nc1COCCOCC(F)(F)F (stereo not drawn)",
    "Test System": "Monocotyledonous and dicotyledonous test plants",
    "Post-emergence action rating, Ipopur.": 2
  }
]

Would you mind telling me what Post-emergence action rating, Ipopur. value was observed for CCOCCOCc1nc(C(F)(F)F)ccc1C(=O)c1cnn(C)c1O ? 2

Can you look up the measured Post-emergence action rating, Ipopur. of C[S+]([O-])CCOCc1nc(C(F)(F)F)ccc1C(=O)C1=C(O)C2CCC(C2)C1=O (stereo not drawn) for me? 2

What value of Post-emergence action rating, Ipopur. has been reported for the following molecule? CC(C)OCc1nc(C(F)(F)F)ccc1C(=O)c1cnn(C)c1O 3

What value of Post-emergence action rating, Ipopur. has been recorded for this entry: COCOCc1nc(C(F)(F)F)ccc1C(=O)C1=C(O)C2CCC(C2)C1=O (stereo not drawn) 1

What value of Post-emergence action rating, Ipopur. has been recorded for this entry: O=C(C1=C(O)C2CCC(C2)C1=O)c1ccc(C(F)(F)F)nc1COCCCOCc1ccccc1 (stereo not drawn) 3

* * *

# Test system: Monocotyledonous and dicotyledonous test plants
# Experiment Description: Herbicidal action before emergence of the plants (pre-emergence action), greenhouse pot test, 9-level rating after 4 weeks
# Format: in vivo
# Study Conditions: Echino., 250 g/ha, rated after 4 weeks, 9-level scale
Observation Type: Pre-emergence action rating, Echino.
Lab note: write the figure by itself, no unit.

Worked cases, Pre-emergence action rating, Echino. given:
[
  {
    "Compound": "COCCOCc1nc(C(F)(F)F)ccc1C(=O)C1=C(O)C2CCC(C2)C1=O (stereo not shown) [A10-B52, (H3)]",
    "Test System": "Monocotyledonous and dicotyledonous test plants",
    "Pre-emergence action rating, Echino.": 1
  },
  {
    "Compound": "C#CCCOCc1nc(C(F)(F)F)ccc1C(=O)C1=C(O)C2CCC(C2)C1=O (stereo not shown) [A836-B52]",
    "Test System": "Monocotyledonous and dicotyledonous test plants",
    "Pre-emergence action rating, Echino.": 1
  },
  {
    "Compound": "CS(=O)(=O)CCOCc1nc(C(F)(F)F)ccc1C(=O)C1=C(O)C2CCC(C2)C1=O (stereo not shown) [A819-B52]",
    "Test System": "Monocotyledonous and dicotyledonous test plants",
    "Pre-emergence action rating, Echino.": 7
  }
]

Sample N#CCCOCc1nc(C(F)(F)F)ccc1C(=O)C1=C(O)C2CCC(C2)C1=O (stereo not shown) [A849-B52] — what was its Pre-emergence action rating, Echino.? 2

Return reported Pre-emergence action rating, Echino.; argument: Cn1ncc(C(=O)c2ccc(C(F)(F)F)nc2COCC(F)(F)F)c1O [A834-C5] 1

# get_value(readout='Pre-emergence action rating, Echino.', item= COCCOCc1nc(C(F)(F)F)ccc1C(=O)c1c(C)nn(C)c1O [A10-C2 (H6)] ) 3

Name the reported Pre-emergence action rating, Echino. value associated with the compound COCCOCc1c(C(=O)C2=C(O)C3CCC(C3)C2=O)ccc(C(F)(F)F)[n+]1[O-] (stereo not shown) [A736-B52] 2

Can you look up the measured Pre-emergence action rating, Echino. of C#CCOCc1nc(C(F)(F)F)ccc1C(=O)C1=C(O)C2CCC(C2)C1=O (stereo not shown) [A18-B52] for me? 1

I would be grateful if you could share the reported Pre-emergence action rating, Echino. for CCN(CC)CC.O=C(C1=C(O)C2CCC(C2)C1=O)c1ccc(C(F)(F)F)nc1COC1CCCCO1 (stereo not shown) [A28-B52 (Et3NH+)] . 2

Fill in the blank: the reported Pre-emergence action rating, Echino. of COCc1nc(C(F)(F)F)ccc1C(=O)c1c(C)nn(C)c1O [A1-C2] is ____. 3

// lookup Pre-emergence action rating, Echino. for COCCOCc1nc(C(F)(F)F)ccc1C(=O)C1=C(O)C(C)(C)CC(C)C1=O (stereo not shown) [A10-B4] 1

What does the data say about its Pre-emergence action rating, Echino.? Entry: O=C(C1=C(O)C2CCC(C2)C1=O)c1ccc(C(F)(F)F)nc1COCCOC1CCCCO1 (stereo not shown) [A842-B52] 2

Item COCCOCc1nc(C(F)(F)F)ccc1C(=O)c1cnn(C)c1O [A10-C5] has what recorded Pre-emergence action rating, Echino.? 1

Form field: reported Pre-emergence action rating, Echino. of CC(C)(C)C(=O)OCc1nc(C(F)(F)F)ccc1C(=O)C1=C(O)C2CCC(C2)C1=O (stereo not shown) [A839-B52] 2

Dear colleague, I am looking for the recorded Pre-emergence action rating, Echino. of the following compound: CCN(CC)CC.O=C(C1=C(O)C2CCC(C2)C1=O)c1ccc(C(F)(F)F)nc1COC1CCCO1 (stereo not shown) [A837-B52 (Et3NH+)] 2

State the recorded Pre-emergence action rating, Echino. for this entry: CCOC(=O)C1(C)CCC(=O)C(C(=O)c2ccc(C(F)(F)F)nc2COCCOC)=C1O (stereo not shown) [A10-B14] 3

Any idea what Pre-emergence action rating, Echino. was measured for COCCOCc1nc(C(F)F)ccc1C(=O)C1=C(O)C2CCC(C2)C1=O (stereo not shown) [A646-B52] ? 1

Please look up its Pre-emergence action rating, Echino.: CCOCCOCc1nc(C(F)(F)F)ccc1C(=O)c1cnn(C)c1OS(C)(=O)=O [A11-C28] 1
